- study.system: Nuclear receptor subfamily 1 group I member 3 (Homo sapiens) (UniProt Q14994)
- Sequence (Q14994 whole entry, looked up): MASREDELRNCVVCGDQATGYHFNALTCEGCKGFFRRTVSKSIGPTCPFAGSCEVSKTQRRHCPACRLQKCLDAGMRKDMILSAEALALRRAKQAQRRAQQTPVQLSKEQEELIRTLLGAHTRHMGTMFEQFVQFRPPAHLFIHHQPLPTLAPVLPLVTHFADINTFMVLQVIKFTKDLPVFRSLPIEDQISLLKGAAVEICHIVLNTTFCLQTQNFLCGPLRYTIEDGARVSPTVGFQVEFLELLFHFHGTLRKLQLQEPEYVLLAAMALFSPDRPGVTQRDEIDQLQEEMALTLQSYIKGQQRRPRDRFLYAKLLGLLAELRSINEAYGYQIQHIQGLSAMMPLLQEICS
- assay.summary: qHTS assay to identify small molecule agonists of the constitutive androstane receptor (CAR) signaling pathway (AID 1224839);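 note: HepG2 cells stably carrying human CAR and a CYP2B6 luciferase reporter; % is set by controls: 0 for no effect and ±100 for the full control effect; nearly all actives have a fitted effect of over 15% in size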
- conditions: HepG2 hCAR CYP2B6-luciferase, agonist mode, 24 h; series mostly up to 92.4 µM
Inconclusive results are not listed. Active and inactive are the calls of the source. Calls come from the whole dose curve; as a rule, active = well fitted activation curve with a large enough effect in the repeat runs; inconclusive = weak or mixed curves; inactive = no such curve, though single readings can be large or run the other way.
Respond only with the outcome that fits, drawn from active, inactive

molecule | category
CCCC(C)CCC(C)=O (stereo not drawn) | inactive

## Task // return assay outcome for `NC(=O)c1ccccc1N`
## Result inactive

## Task Please indicate how the test categorized `CC1(C)COCN1` .
## Result inactive

## Task Outcome? `Cc1ccc(-n2[nH]c(C)c(N=Nc3cccc(-c4cccc(C(=O)O)c4)c3O)c2=O)cc1C`
## Result inactive

## Task Could you kindly confirm the outcome this assay logged for `COc1ccc2sc(C(=O)Nc3nnn[nH]3)c(OC(C)C)c2c1` ?
## Result inactive

## Task For CSc1ccc2c(c1)N(CCC1CCCCN1C)c1ccccc1S2 (stereo not drawn) , what call appears in the results of this test?
## Result inactive

## Task Test call for this molecule, please: `COc1cccc(O)c1`
## Result inactive

## Task Tell me the recorded outcome of this test for `CN(C)CCCN1c2ccccc2Sc2ccc(C(F)(F)F)cc21` .
## Result inactive

## Task How did this test come out for `CCOCN(C(=O)CS(=O)(=O)O)c1c(C)cccc1CC` ?
## Result inactive

## Task Please state the recorded outcome for this molecule: C1CC(COCC2CO2)CCC1COCC1CO1 (stereo not drawn)
## Result inactive

---

- study.system: Cytochrome P450 2C9 (Homo sapiens) (UniProt P11712)
- Sequence (P11712 whole entry, looked up): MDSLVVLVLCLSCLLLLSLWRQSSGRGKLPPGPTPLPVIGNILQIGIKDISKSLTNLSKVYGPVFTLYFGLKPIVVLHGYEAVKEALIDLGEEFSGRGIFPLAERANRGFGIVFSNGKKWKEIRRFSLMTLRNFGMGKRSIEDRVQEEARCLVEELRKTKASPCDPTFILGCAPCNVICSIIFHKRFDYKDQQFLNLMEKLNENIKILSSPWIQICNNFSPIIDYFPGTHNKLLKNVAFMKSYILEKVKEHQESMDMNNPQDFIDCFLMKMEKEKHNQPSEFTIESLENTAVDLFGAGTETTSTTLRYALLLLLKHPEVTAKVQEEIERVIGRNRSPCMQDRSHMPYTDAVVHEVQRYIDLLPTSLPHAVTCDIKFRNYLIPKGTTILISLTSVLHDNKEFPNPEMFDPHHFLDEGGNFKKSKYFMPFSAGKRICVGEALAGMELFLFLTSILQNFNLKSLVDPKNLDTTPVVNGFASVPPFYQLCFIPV
- assay.summary: Cytochrome P450 Family 2 Subfamily C Member 9 (CYP2C9) small molecule antagonists: luciferase reporter qHTS assay (AID 1671198); note: nearly all actives have a fitted effect of over 50% in size; note: potency is the fitted concentration of half-maximal effect
- conditions: P450-Glo CYP2C9 enzyme assay, luciferin luminescence; series mostly up to 115 µM
Results filed as inconclusive are left out. The source made the active and inactive calls. The call rests on the fitted dose curve; in most records, active means well fitted inhibition curve with a large enough effect in the repeat runs; inconclusive means weak or mixed curves; inactive means no such curve, though single readings can be large or run the other way.
recorded.metric: Potency

Record excerpt, results attached:
molecule | Potency
CCCCCCCOC(=O)c1ccccc1C(=O)OCCCCCCC | 17.8 µM (active)
COc1cccc(O)c1 | inactive
CCN(CC)c1cccc(C)c1 | inactive
CCCC(=O)OCC(COC(=O)CCC)OC(=O)CCC | 5.64 µM (active)
NCCCCCCNCCCCCCN | inactive
CCCCCCCC(=O)OCC | inactive

## Task Recorded Potency for `C=CC/C=C/C/C=C/C/C=C/C` , please?
## Result inactive

## Task Need Potency of CSc1ccc2c(c1)N(CCC1CCCCN1C)c1ccccc1S2 (configuration not stated) , thanks.
## Result 70.7 µM (active)

## Task Tell me the measured Potency of `CC1(C)C(=O)N(CO)C(=O)N1CO` , please.
## Result inactive

## Task Need Potency, item `CCOC(=O)[C@@](C)(N)Cc1ccc(O)c(O)c1`
## Result inactive

## Task Endpoint output: Potency of `O=C=NCc1cccc(CN=C=O)c1` . Value?
## Result 6.74 µM (active)

## Task Given `Cc1cccc(Br)c1` , state its recorded Potency.
## Result 40.1 µM (active)

## Task Would you mind telling me what Potency value was observed for `CCc1cccc(C)c1` ?
## Result inactive

## Task Request the reported Potency associated with `CC(=O)C=O`
## Result inactive

## Task What does the record list as Potency for `CC(C)(C)c1cc(CCC(=O)NCCCCCCNC(=O)CCc2cc(C(C)(C)C)c(O)c(C(C)(C)C)c2)cc(C(C)(C)C)c1O` ?
## Result 1.42 µM (active)

## Task Name the reported Potency value associated with the molecule CCC(C)c1ccccc1 (configuration not stated)
## Result inactive

## Task Give the measured Potency of `CO[C@H]1C=CO[C@@]2(C)Oc3c(C)c(O)c4c(O)c(cc(O)c4c3C2=O)NC(=O)/C(C)=C\C=C/[C@H](C)[C@H](O)[C@@H](C)[C@@H](O)[C@@H](C)[C@H](OC(C)=O)[C@@H]1C` .
## Result 10.1 µM (active)

## Task Recorded Potency for `NC(=O)c1ccccc1N` , please?
## Result inactive

## Task Quick one: Potency of `COc1cc(C=C2CCC/C(=C\c3ccc(O)c(OC)c3)C2=O)ccc1O` ?
## Result 15.5 µM (active)

## Task Query (molecule): `CCOC(=O)C1=C(C)NC(C)=C(C(=O)OCC)C1c1ccccc1/C=C/C(=O)OC(C)(C)C` ; field requested: Potency
## Result 1.1 µM (active)

## Task Fill blank: measured Potency of the molecule `N#CSCSc1nc2ccccc2s1` is ____.
## Result 31.7 µM (active)

## Task Suppose we examine the molecule `Cc1oc(-c2ccccc2)nc1CCOc1ccc(C[C@H](Nc2ccccc2C(=O)c2ccccc2)C(=O)O)cc1` ; what Potency value has been reported?
## Result 20 µM (active)

---

- assay.summary: qHTS assay to identify small molecule agonists of the farnesoid-X-receptor (FXR) signaling pathway - cell viability counter screen (AID 743218); note: nearly all actives have a fitted effect of over 45% in size
- conditions: FXR-bla HEK293T viability, CellTiter-Glo luminescence, 16 h; series mostly up to 62.6 µM
Results filed as inconclusive are left out. Activity calls are given as the source filed them. Calls follow the shape of the dose curve; as a rule, active = well fitted cell-killing curve with a large enough effect in the repeat runs; inconclusive = weak or mixed curves, or effect the other way; inactive = no such curve, though single readings can be large or run the other way.
# valid calls are 1 = active, -1 = inactive; nothing else

Answered cases to consult:
molecule | category
CC(C)c1cccc(C(C)C)c1N1C(=O)c2ccc(O)cc2C1=O | -1
O=C(O)CCCCCCC(=O)O | -1
CCCCCCCCCC(=O)N(C)C | -1
O=C1NCN(c2ccccc2)C12CCN(CCCC(c1ccc(F)cc1)c1ccc(F)cc1)CC2 | 1

## Task Hi team, can someone confirm the assay call for `O=Cc1ccc(F)cc1` ?
## Result -1

## Task Look up the recorded call for `CCN(CC)CCOC(=O)C1(C2CCCCC2)CCCCC1` in this test.
## Result -1

## Task Dear all, I need the recorded test outcome for O=C1NC2CCCCN2C12CCN(CCCN1c3ccccc3CCc3ccc(Cl)cc31)CC2 (stereo unspecified) , thank you.
## Result 1

## Task Per the records of this test, what outcome belongs to CCCCCCC(C)OC(=O)COc1nc(F)c(Cl)c(N)c1Cl (stereo unspecified) ?
## Result -1

## Task What outcome does the record of this test show for `CC(C)(c1cc(Br)c(O)c(Br)c1)c1cc(Br)c(O)c(Br)c1` ?
## Result -1

---

- study.system: Androgen receptor (Homo sapiens) (UniProt P10275)
- Sequence (P10275 whole entry, looked up): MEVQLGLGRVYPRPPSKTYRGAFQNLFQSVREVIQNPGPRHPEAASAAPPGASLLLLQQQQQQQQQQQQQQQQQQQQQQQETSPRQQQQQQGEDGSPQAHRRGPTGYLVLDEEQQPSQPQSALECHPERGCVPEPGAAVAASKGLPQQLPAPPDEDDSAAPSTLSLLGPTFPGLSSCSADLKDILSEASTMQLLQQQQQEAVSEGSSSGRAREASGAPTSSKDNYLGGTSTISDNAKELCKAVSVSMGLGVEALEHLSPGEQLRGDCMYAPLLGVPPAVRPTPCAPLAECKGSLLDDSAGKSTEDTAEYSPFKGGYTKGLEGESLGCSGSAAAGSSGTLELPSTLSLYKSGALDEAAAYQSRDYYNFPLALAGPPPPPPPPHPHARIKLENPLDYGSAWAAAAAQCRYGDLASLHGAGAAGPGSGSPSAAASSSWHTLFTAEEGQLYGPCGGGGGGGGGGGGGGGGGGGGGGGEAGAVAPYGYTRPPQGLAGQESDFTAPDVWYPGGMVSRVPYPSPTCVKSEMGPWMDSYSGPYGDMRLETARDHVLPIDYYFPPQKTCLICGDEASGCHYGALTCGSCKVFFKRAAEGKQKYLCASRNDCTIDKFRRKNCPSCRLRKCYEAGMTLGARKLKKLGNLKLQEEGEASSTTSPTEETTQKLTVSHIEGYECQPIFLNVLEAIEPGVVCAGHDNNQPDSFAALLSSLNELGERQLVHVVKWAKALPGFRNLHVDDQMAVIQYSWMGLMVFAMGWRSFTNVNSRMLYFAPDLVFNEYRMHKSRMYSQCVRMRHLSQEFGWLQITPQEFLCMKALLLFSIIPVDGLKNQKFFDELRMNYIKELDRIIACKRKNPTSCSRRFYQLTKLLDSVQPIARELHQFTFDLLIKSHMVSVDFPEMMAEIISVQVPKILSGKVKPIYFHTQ
- assay.summary: qHTS assay to identify small molecule antagonists of the androgen receptor (AR) signaling pathway (AID 743035)
- conditions: HEK293 AR-UAS-bla, R1881-stimulated, beta-lactamase FRET, 16 h; series mostly up to 58.5 µM
- Excerpt: National Center for Advancing Translational Sciences [NCATS] NIH Chemical Genomics Center [NCGC] U.S. Environmental Protection Agency [EPA] National Institutes of Environmental Health Sciences [NIEHS] National Toxicology Program [NTP] U.S. Food and Drug Administration [FDA] Androgen receptor (AR), a nuclear hormone receptor, plays a critical role in AR-dependent prostate cancer and other androgen related diseases. […]
Records with an inconclusive call do not appear. Calls of active or inactive are those of the source. Calls follow the shape of the dose curve; as a rule, active = well fitted inhibition curve with a large enough effect in the signal ratio in the repeat runs (not every such curve was filed as active); inconclusive = weak or mixed curves, or effect the other way; inactive = no such curve, though single readings can be large or run the other way; the % refers to the signal ratio.
Your answer must be one of the following: true (1) = active, false (0) = inactive

Known results for molecules:
molecule | category
N[C@@H](CSSC[C@H](N)C(=O)O)C(=O)O | false (0)
Cc1cn[nH]c1 | false (0)

## Task Please share the test call associated with CC(NCCC(c1ccccc1)c1ccccc1)c1ccccc1 (stereo not drawn) .
## Result true (1)

## Task Please share the test call associated with `O=C(O)c1cccc(Cl)n1` .
## Result false (0)

## Task Can you look up the reported call for `C=CC(=O)OCCC#N` for me?
## Result false (0)

---

- assay.summary: qHTS assay to identify small molecule antagonists of the retinoid acid receptor (RAR) signaling pathway - cell viability counter screen (AID 1159551); note: nearly all actives have a fitted effect of over 35% in size
- conditions: C3RL4 cells viability, ATP luminescence (CellTiter-Glo), 6 h; series mostly up to 92.4 µM
Records with an inconclusive call do not appear. Active and inactive are the calls of the source. The call rests on the fitted dose curve; in most records, active means well fitted cell-killing curve with a large enough effect in the repeat runs; inconclusive means weak or mixed curves, or effect the other way; inactive means flat fitted curve, though single readings scatter.
Respond with a class label; see 1 for active, -1 for inactive

Worked examples, 3 molecules total:
molecule | category
CCN(CC)CCSC(=O)C(c1ccccc1)c1ccccc1 | -1
Cc1nc(Nc2ncc(C(=O)Nc3c(C)cccc3Cl)s2)cc(N2CCN(CCO)CC2)n1 | -1
O=C(O)Cc1ccc(OCCNC[C@H](O)c2ccccc2)cc1 | -1

## Task # outcome recorded in this test, key = `CC1(C)COCN1`
## Result -1

## Task // return assay outcome for `CCOCN(C(=O)CS(=O)(=O)O)c1c(C)cccc1CC`
## Result -1

## Task Per the records of this test, what outcome belongs to `CCN(CC)c1cccc(C)c1` ?
## Result -1

## Task How did this test come out for CCNc1nc(NC(C)CC)nc(OC)n1 (stereo not drawn) ?
## Result -1

## Task What classification did `CCCOc1sc(C(=O)N2CCC(c3cc(CN)ccc3F)CC2)c(C)c1Br` end up with in this test?
## Result 1

## Task # lookup: test call for `CCc1ccc(C)nc1`
## Result -1

## Task Assay outcome for O=C1OC(OC(=O)c2cccnc2Nc2cccc(C(F)(F)F)c2)c2ccccc21 (stereo not drawn) : what was it?
## Result -1

## Task Could you check what this test reported for `CS(C)(=O)=O` ?
## Result -1

## Task Please share the test call associated with `CN1CN(C)CN(C)C1` .
## Result -1

## Task GET /call?item= `CCCCCCCCCCCCCCCC` returns the recorded outcome of this test.
## Result -1

## Task How did this test come out for `c1cc2c3c(c1)ccc1cccc(c13)C2` ?
## Result -1
